Bridge positions count the residues as written; N and C are the ends. Square brackets hold non-standard residues; d marks the D form. Peptide text beside a SMILES is read from it. * marks the point of attachment. d1Nal = N[C@H](Cc1cccc2ccccc12)C(=O)O; Ahp = NCCCCCCC(=O)O; Bn = c1ccc(C*)cc1
Listed here: molecules with reported Ki for Somatostatin receptor type 2 (Homo sapiens, UniProt P30874).

C[C@@H](OCc1ccccc1)[C@@H]1NC(=O)[C@H](CCCCN)NC(=O)[C@@H](Cc2c[nH]c3ccccc23)NC(=O)[C@H](Cc2ccccc2)NC(=O)CCCCCCNC1=O [c[Aha-Phe-D-Trp-Lys-Thr(Bzl)]] (cyclo([Ahp]F[dW]KT(Bn))) :: 1820 nM
C[C@@H](O)[C@@H]1NC(=O)[C@H](CCCCN)NC(=O)[C@@H](Cc2c[nH]c3ccccc23)NC(=O)[C@H](Cc2ccccc2)NC(=O)[C@@H]2CCCN2C(=O)[C@H](Cc2ccccc2)NC1=O (cyclo(PF[dW]KTF)) :: 3.39 nM

# batch: return Ki for each of the 3 molecules below
1. C[C@@H](O)[C@H](NC(=O)[C@H](Cc1ccccc1)NC(=O)[C@@H](NC(=O)[C@H](CCCCN)NC(=O)[C@@H](Cc1c[nH]c2ccccc12)NC(=O)[C@H](Cc1ccccc1)NC(=O)[C@H](Cc1ccccc1)NC(=O)[C@H](N)Cc1ccccc1)[C@@H](C)O)C(N)=O [CAS_133073-82-2] (H-[dF]FF[dW]KTFT-NH2)
2. C[C@@H](O)[C@@H]1NC(=O)[C@H](CCCCN)NC(=O)[C@H](Cc2c[nH]c3ccccc23)NC(=O)[C@H](Cc2ccccc2)NC(=O)[C@H](Cc2ccccc2)NC(=O)[C@H](CC(N)=O)NC(=O)[C@H](CCCCN)NC(=O)[C@@H](NC(=O)[C@@H]2CCCN2)CSSC[C@@H](C(=O)N[C@@H](CCCCN)C(=O)O)NC(=O)[C@H](CO)NC(=O)[C@H](CO)NC(=O)[C@H](Cc2ccccc2)NC1=O [Cortistatin(1-14)] (H-PCKNFFWKTFSSCK-OH; disulfide 2-13)
3. CC(C)[C@H](NC(=O)[C@H](CCCCN)NC(=O)[C@@H](Cc1c[nH]c2ccccc12)NC(=O)[C@H](Cc1ccc(O)cc1)NC(=O)[C@H](Cc1ccccc1)NC(=O)[C@H](N)Cc1ccccc1)C(=O)N[C@@H](Cc1ccccc1)C(=O)N[C@H](Cc1cccc2ccccc12)C(N)=O [BIM 23056] (H-[dF]FY[dW]KVF[d1Nal]-NH2)

["3.16 nM", "2.88 nM", "589 nM"]

---

Answer each item with its documented Ki.
- study system: Somatostatin receptor type 5 (Homo sapiens, UniProt P35346)
- Sequence (P35346 whole entry): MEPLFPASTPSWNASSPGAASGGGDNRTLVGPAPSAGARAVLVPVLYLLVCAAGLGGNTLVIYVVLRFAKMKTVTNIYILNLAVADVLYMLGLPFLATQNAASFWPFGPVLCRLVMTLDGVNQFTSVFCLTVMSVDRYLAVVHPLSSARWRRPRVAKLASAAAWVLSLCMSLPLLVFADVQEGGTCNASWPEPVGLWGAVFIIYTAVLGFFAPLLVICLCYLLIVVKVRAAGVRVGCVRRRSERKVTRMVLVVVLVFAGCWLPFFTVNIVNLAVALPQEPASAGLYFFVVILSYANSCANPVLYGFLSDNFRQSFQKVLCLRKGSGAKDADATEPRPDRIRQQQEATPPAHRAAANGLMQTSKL
Numbered stars: 1 amine (or outer) side, 2 acyl side, 3 side chain; on linkers, the order of the positions; unused ones are H or OH. Bridge positions count the residues as written; N and C are the ends. Square brackets hold non-standard residues; d marks the D form. Peptide text beside a SMILES is read from it. * marks the point of attachment. d1Nal = N[C@H](Cc1cccc2ccccc12)C(=O)O; Asu = N[C@@H](CCCCCC(=O)O)C(=O)O; X1 = O=C(C(N[*:1])S[*:3])[*:2]; Ahp = NCCCCCCC(=O)O; Bn = c1ccc(C*)cc1; Mpa = O=C(O)CCS
Kindly report the value followed by its unit.

Please review the following examples before continuing.
CC(C)[C@@H]1NC(=O)[C@H](CCCCN)NC(=O)[C@@H](Cc2c[nH]c3ccccc23)NC(=O)[C@H](Cc2ccc(O)cc2)NC(=O)CCSSC(C(=O)N[C@@H](Cc2ccccc2)C(N)=O)NC1=O (stereo partly drawn) [CAS_117580-24-2] ([Mpa]Y[dW]KV[X1]F-NH2; disulfide 1-6) :: 2750 nM
C[C@@H](OCc1ccccc1)[C@@H]1NC(=O)[C@H](CCCCN)NC(=O)[C@@H](Cc2c[nH]c3ccccc23)NC(=O)[C@H](Cc2ccccc2)NC(=O)CCCCCCNC1=O [c[Aha-Phe-D-Trp-Lys-Thr(Bzl)]] (cyclo([Ahp]F[dW]KT(Bn))) :: 955 nM
C[C@@H](O)[C@@H]1NC(=O)[C@H](CCCCN)NC(=O)[C@H](Cc2c[nH]c3ccccc23)NC(=O)[C@H](Cc2ccccc2)NC(=O)[C@H](Cc2ccccc2)NC(=O)[C@H](CC(N)=O)NC(=O)[C@H](CCCCN)NC(=O)[C@@H](NC(=O)[C@@H]2CCCN2)CSSC[C@@H](C(=O)N[C@@H](CCCCN)C(=O)O)NC(=O)[C@H](CO)NC(=O)[C@H](CO)NC(=O)[C@H](Cc2ccccc2)NC1=O [Cortistatin(1-14)] (H-PCKNFFWKTFSSCK-OH; disulfide 2-13) :: 3.98 nM
C[C@@H](O)[C@@H]1NC(=O)[C@H](Cc2ccc(O)cc2)NC(=O)[C@H]([C@@H](C)O)NC(=O)[C@H](CCCCN)NC(=O)[C@H](Cc2c[nH]c3ccccc23)NC(=O)[C@H](Cc2ccccc2)NC(=O)[C@H](Cc2ccccc2)NC(=O)[C@H](CC(N)=O)NC(=O)[C@H](CCCCN)NC(=O)CCCCC[C@@H](C(=O)O)NC(=O)[C@H](CO)NC1=O [CGP-23996] (KNFFWKTYTS[Asu]-OH; lactam N-11) :: 214 nM
C[C@@H](O)[C@@H]1NC(=O)[C@H](CCCCN)NC(=O)[C@@H](Cc2c[nH]c3ccccc23)NC(=O)[C@H](Cc2ccccc2)NC(=O)[C@@H]2CCCN2C(=O)[C@H](Cc2ccccc2)NC1=O (cyclo(PF[dW]KTF)) :: 67.6 nM

# batch: return Ki for each of the 2 compounds below
1. C[C@@H](O)[C@H](NC(=O)[C@H](Cc1ccccc1)NC(=O)[C@@H](NC(=O)[C@H](CCCCN)NC(=O)[C@@H](Cc1c[nH]c2ccccc12)NC(=O)[C@H](Cc1ccccc1)NC(=O)[C@H](Cc1ccccc1)NC(=O)[C@H](N)Cc1ccccc1)[C@@H](C)O)C(N)=O [CAS_133073-82-2] (H-[dF]FF[dW]KTFT-NH2)
2. CC(C)[C@@H]1NC(=O)[C@H](CCCCN)NC(=O)[C@@H](Cc2c[nH]c3ccccc23)NC(=O)[C@H](Cc2ccc(O)cc2)NC(=O)[C@H](C)N(C)C(=O)[C@H](Cc2ccccc2)NC1=O [seglitide]

1. 35.5 nM
2. 0.72 nM

# query: Ki | item CC(C)[C@H](NC(=O)[C@H](CCCCN)NC(=O)[C@@H](Cc1c[nH]c2ccccc12)NC(=O)[C@H](Cc1ccc(O)cc1)NC(=O)[C@H](Cc1ccccc1)NC(=O)[C@H](N)Cc1ccccc1)C(=O)N[C@@H](Cc1ccccc1)C(=O)N[C@H](Cc1cccc2ccccc12)C(N)=O [BIM 23056] (H-[dF]FY[dW]KVF[d1Nal]-NH2) | system: Somatostatin receptor type 5 (Homo sapiens, UniProt P35346) 209 nM

---

Numbered stars: 1 amine (or outer) side, 2 acyl side, 3 side chain; on linkers, the order of the positions; unused ones are H or OH. Bridge positions count the residues as written; N and C are the ends. Square brackets hold non-standard residues; d marks the D form. Peptide text beside a SMILES is read from it. Asu = N[C@@H](CCCCCC(=O)O)C(=O)O; X1 = O=C(C(N[*:1])S[*:3])[*:2]; Mpa = O=C(O)CCS
Listed here: molecules with reported Ki for UniProtKB P30874.
Give bare numbers, in nM.

C[C@@H](O)[C@@H]1NC(=O)[C@H](Cc2ccc(O)cc2)NC(=O)[C@H]([C@@H](C)O)NC(=O)[C@H](CCCCN)NC(=O)[C@H](Cc2c[nH]c3ccccc23)NC(=O)[C@H](Cc2ccccc2)NC(=O)[C@H](Cc2ccccc2)NC(=O)[C@H](CC(N)=O)NC(=O)[C@H](CCCCN)NC(=O)CCCCC[C@@H](C(=O)O)NC(=O)[C@H](CO)NC1=O [CGP-23996] (KNFFWKTYTS[Asu]-OH; lactam N-11) :: 1.15

Query molecule follows.
Using the record for CC(C)[C@@H]1NC(=O)[C@H](CCCCN)NC(=O)[C@@H](Cc2c[nH]c3ccccc23)NC(=O)[C@H](Cc2ccc(O)cc2)NC(=O)CCSSC(C(=O)N[C@@H](Cc2ccccc2)C(N)=O)NC1=O (some centres not stated) [CAS_117580-24-2] ([Mpa]Y[dW]KV[X1]F-NH2; disulfide 1-6) , report its Ki. 21.9
